target: PNP from Helicobacter pylori strain 26695 (HpPNP) (Helicobacter pylori, UniProt P56463); experiment: Inhibition of H. pylori PNP, direct spectrophotometric phosphorolysis assay; type: biochemical; details: m7Guo variable substrate, 50 mM phosphate; model chosen by F test / AIC
Sequence (P56463 whole entry): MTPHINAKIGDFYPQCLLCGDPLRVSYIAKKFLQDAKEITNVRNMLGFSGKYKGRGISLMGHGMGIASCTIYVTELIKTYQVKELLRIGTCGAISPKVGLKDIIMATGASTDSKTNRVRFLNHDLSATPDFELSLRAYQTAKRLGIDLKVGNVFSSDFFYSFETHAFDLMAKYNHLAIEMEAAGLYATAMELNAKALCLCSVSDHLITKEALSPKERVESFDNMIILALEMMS
attribute-measured: inhibition model describing the data

1. c1ccc(CSc2ncnc3nc[nH]c23)cc1	non-competitive
2. Clc1nc(Cl)c2[nH]cnc2n1	non-competitive

----------
target: PNP from Helicobacter pylori strain 26695 (HpPNP) (Helicobacter pylori); test: Inhibition of H. pylori PNP, direct spectrophotometric phosphorolysis assay; format: biochemical; conditions: mixed inhibition model; m7Guo variable substrate, 50 mM phosphate, 25 °C, pH 7.0
attribute-measured: alpha = Kiu/Kic

Example cases with answers are listed next.
1) Clc1nc(Cl)c2[nH]cnc2n1	1.17
2) c1ccc(CSc2ncnc3nc[nH]c23)cc1	1.07

[a] Clc1nc(OCc2ccccc2)c2[nH]cnc2n1
[b] Clc1nc(SCc2ccccc2)c2[nH]cnc2n1
Dear colleague, could you let me know whether a or b has the lower recorded alpha = Kiu/Kic? Thanks. // return label of chosen record b
(b: 0.16, a: 0.25)

The measurements presented in this section are drawn from paper PMC9037209.
